- systemUnderTest: UniProt:P29474
- protocolDetails: eNOS (Human) enzyme assay, radiometric conversion of [3H]L-arginine to [3H]L-citrulline
- Format: biochemical
- conditionParameters: recombinant human enzyme, 37° C., 45 min; read-out: Human eNOS
- Procedure: Recombinant human inducible NOS (iNOS), human endothelial constitutive NOS (eNOS) or human neuronal constitutive NOS(nNOS) were produced in Baculovirus-infected Sf9 cells (ALEXIS). In a radiometric method, NO synthase activity was determined by measuring the conversion of [^3H]L-arginine to [^3H]L-citrulline. […]
readoutName: pIC50
Note on pIC50: it is the negative log10 of concentration, concentration in mol/L.

In the examples that follow, each entry is paired with its recorded pIC50.
compound	pIC50
CNC1CC=C(c2c[nH]c3cc(NC(=N)c4cccs4)ccc23)CC1 (stereo not drawn)	4.68
CN1CCCC1CCn1ccc2cc(NC(=N)c3cccs3)ccc21 (single isomer, unassigned) [(−)−57]	5.72
N=C(Nc1ccc2c(ccn2-c2cccnc2)c1)c1cccs1	5.59
N=C(Nc1ccc2c(ccn2C2CN3CCC2CC3)c1)c1cccs1 (stereo not drawn)	4.92
CCCN[C@H]1CC[C@@H](c2c[nH]c3cc(NC(=N)c4cccs4)ccc32)CC1	5.26
N=C(Nc1ccc2c(C3CN4CCC3CC4)c[nH]c2c1)c1cccs1 (stereo not drawn)	4.50

Request: Would you kindly share the measured pIC50 for CCN1CCCC1CNCCCn1ccc2cc(NC(=N)c3cccs3)ccc21 (stereo not drawn) ?
Result: 5.20

Request: And the next one, CN1CCCC(n2ccc3cc(NC(=N)c4ccco4)ccc32)CC1 (stereo not drawn) [Compound 54] ?
Result: 4.41

Request: What about CN1CCCC(n2ccc3cc(NC(=N)c4cccs4)ccc32)CC1 (stereo not drawn) ?
Result: 4.94

Request: Moving on to the next compound: CCNC1CC=C(c2c[nH]c3cc(NC(=N)c4cccs4)ccc23)CC1 (stereo not drawn)
Result: 4.76

Request: Then CN1CCCC1CCn1ccc2cc(NC(=N)N[N+](=O)[O-])ccc21 (stereo not drawn) ?
Result: 5.06

Request: Next: CN1CCCCC1CCn1ccc2cc(NC(=N)c3cccs3)ccc21 (stereo not drawn)
Result: 5.19

Request: What do you have for `CN1CCC[C@H]1Cn1ccc2cc(NC(=N)c3cccs3)ccc21` ?
Result: 5.47

Request: Then what about the compound `CN(C)CCCn1ccc2cc(NC(=N)c3cccs3)ccc21` ?
Result: 4.91

Request: `CN1CC=C(c2c[nH]c3cc(NC(=N)c4cccs4)ccc23)CC1`
Result: 4.54
